For each entry below, report its self-splicing fitness (ln) value.
Assay: self-splicing fitness, log relative to wild type (ln ratio); higher = more splicing; Tetrahymena group I intron in knt gene, E. coli kanamycin selection, DiMSum; sequences stand for … in CUCUCU…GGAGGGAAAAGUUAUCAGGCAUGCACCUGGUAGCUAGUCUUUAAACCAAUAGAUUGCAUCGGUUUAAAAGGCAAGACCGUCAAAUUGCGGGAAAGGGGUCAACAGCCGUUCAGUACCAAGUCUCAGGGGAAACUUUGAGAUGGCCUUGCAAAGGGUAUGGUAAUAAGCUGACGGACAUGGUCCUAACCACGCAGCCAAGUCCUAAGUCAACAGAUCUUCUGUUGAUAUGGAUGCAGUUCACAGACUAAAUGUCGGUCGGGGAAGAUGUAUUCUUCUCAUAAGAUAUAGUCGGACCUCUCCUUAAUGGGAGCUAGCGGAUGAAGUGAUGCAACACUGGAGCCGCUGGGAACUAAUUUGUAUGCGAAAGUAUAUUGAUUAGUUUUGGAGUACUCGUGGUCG;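 note: selection with 25 µg/mL kanamycin versus none on LB agar overnight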
Settings: 30 °C
Numbers only.

Completed entries (count: 7):
GCGCAGCAAUAUUACGGCCA | -0.728
UUGCAGCAAUAUUACGUUUU | -3.97
UAAAAGCAAUAUUACGAAAC | -2.8
CCCAAGCAAUAUUACGUCUA | -4.2
GUCGAGCAAUAUUACGGCUG | -2.54
GGCCAGCAAUAUUACGUUGA | -2.04
GGGAAGCAAUAUUACGUCGA | -0.874

Now consider a different sequence.
Q: Data request, read-out self-splicing fitness (ln), for GGGUAGCAAUAUUACGGGGG
Result: -2.97

* * *

Assay: self-splicing fitness, log relative to wild type (ln ratio); higher = more splicing; Tetrahymena group I intron in knt gene, E. coli kanamycin selection, DiMSum; sequences stand for … in CUCUCU…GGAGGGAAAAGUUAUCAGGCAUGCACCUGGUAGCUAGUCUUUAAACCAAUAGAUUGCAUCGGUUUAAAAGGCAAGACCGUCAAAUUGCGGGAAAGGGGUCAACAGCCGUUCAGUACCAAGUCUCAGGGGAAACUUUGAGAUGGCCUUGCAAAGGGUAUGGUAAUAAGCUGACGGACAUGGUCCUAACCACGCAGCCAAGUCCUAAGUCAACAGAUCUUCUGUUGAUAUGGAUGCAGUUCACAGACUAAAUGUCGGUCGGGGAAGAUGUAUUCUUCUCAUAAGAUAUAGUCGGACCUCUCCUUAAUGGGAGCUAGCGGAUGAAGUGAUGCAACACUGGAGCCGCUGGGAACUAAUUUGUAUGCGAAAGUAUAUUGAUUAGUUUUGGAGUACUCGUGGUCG
Conditions: 30 °C
Each record's self-splicing fitness (ln) is compared with low range = under -3, mid range = from -3 up to -2, high range = -2 and over to give its class.

CAAGAGCAAUAUUACGUUCG | high range

Q: Which bin, given its self-splicing fitness (ln), does GCUCAGCAAUAUUACGGUGC occupy?
Result: high range

Q: Which bin, given its self-splicing fitness (ln), does UUUAAGCAAUAUUACGCUGG occupy?
Result: mid range

Q: Which bin, given its self-splicing fitness (ln), does AUGAAGCAAUAUUACGGAUU occupy?
Result: high range

Q: Which bin, given its self-splicing fitness (ln), does CAAGAGCAAUAUUACGUGGG occupy?
Result: low range

Q: Which bin, given its self-splicing fitness (ln), does GUAAAGCAAUAUUACGUGGG occupy?
Result: low range

* * *

Assay: self-splicing fitness, log relative to wild type (ln ratio); higher = more splicing; Tetrahymena group I intron in knt gene, E. coli kanamycin selection, DiMSum; sequences stand for … in CUCUCU…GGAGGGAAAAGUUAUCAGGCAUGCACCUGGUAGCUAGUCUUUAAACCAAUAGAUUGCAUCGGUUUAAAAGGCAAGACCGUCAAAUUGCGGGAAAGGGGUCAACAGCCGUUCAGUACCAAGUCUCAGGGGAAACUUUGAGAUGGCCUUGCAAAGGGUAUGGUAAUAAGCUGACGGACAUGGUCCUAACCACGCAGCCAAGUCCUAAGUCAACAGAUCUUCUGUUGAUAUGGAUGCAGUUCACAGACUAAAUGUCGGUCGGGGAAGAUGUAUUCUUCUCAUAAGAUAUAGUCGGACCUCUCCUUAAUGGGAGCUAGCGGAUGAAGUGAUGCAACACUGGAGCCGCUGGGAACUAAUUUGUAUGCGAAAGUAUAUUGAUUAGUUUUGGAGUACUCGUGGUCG
Settings: 37 °C
Endpoint label: self-splicing fitness (ln)
One number for each entry.

AAAAAGCAAUAUUACGGACA | -0.0474

Report self-splicing fitness (ln) for each item below.
1. CGGCAGCAAUAUUACGGCAU
2. AGAAAGCAAUAUUACGUGGA

Result:
1: -0.0577; 2: -2.28

* * *

Test: self-splicing fitness, log relative to wild type (ln ratio); higher = more splicing; Tetrahymena group I intron in knt gene, E. coli kanamycin selection, DiMSum; sequences stand for … in CUCUCU…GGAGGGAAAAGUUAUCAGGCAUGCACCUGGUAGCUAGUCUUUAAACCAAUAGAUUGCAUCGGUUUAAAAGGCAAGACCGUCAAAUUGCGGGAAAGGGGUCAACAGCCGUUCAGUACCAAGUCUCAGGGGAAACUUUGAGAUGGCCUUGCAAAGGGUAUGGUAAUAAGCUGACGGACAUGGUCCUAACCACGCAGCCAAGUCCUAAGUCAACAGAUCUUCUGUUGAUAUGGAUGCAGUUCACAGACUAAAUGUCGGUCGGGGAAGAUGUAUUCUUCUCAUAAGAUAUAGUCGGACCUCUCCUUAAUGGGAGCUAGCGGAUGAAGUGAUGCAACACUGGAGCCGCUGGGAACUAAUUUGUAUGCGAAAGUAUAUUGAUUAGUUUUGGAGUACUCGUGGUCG
Settings: 30 °C
Endpoint label: self-splicing fitness (ln)

Completed entries (count: 8):
GUUGAGCAAUAUUACGCAGC | -2.23
UCGAAGCAAUAUUACGAUGU | -1.82
ACGGAGCAAUAUUACGAGGC | -2.43
UCAAAGCAAUAUUACGUUUU | -3.28
AAGAAGCAAUAUUACGUCUC | -2.04
GUCCAGCAAUAUUACGAAUG | -2.65
GGAUAGCAAUAUUACGGGCG | -1.69
UAGUAGCAAUAUUACGACGG | -1.21

Report self-splicing fitness (ln) for each item below.
1. UGUUAGCAAUAUUACGCUCU
2. GGCCAGCAAUAUUACGUUAC
3. UGGAAGCAAUAUUACGCAUU
4. AAACAGCAAUAUUACGCAUC
5. CUAAAGCAAUAUUACGGUGC
6. ACCGAGCAAUAUUACGGGCC
7. GUGUAGCAAUAUUACGACGG
8. AUGUAGCAAUAUUACGACAC

Result:
1. -1.66
2. -2.01
3. -2.63
4. -2.82
5. -3.22
6. -3.39
7. -3.88
8. -1.31

* * *

Test: self-splicing fitness, log relative to wild type (ln ratio); higher = more splicing; Tetrahymena group I intron in knt gene, E. coli kanamycin selection, DiMSum; sequences stand for … in CUCUCU…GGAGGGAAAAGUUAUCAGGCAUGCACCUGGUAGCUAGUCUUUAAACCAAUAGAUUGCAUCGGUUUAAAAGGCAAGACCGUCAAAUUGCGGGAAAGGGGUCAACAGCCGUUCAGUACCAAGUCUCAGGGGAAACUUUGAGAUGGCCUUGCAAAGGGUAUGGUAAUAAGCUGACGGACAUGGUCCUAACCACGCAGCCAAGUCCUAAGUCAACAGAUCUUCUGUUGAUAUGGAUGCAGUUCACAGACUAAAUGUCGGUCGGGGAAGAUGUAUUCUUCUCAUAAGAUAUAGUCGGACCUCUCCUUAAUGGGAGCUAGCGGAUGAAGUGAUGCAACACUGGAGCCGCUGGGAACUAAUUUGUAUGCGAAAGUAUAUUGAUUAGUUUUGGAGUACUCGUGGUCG
Conditions: 30 °C
So basically: self-splicing fitness (ln) at -2 or higher? That is y. Lower than -2? That is n.

UAACAGCAAUAUUACGCUAA | y
GCAUAGCAAUAUUACGAUCG | y
CCUGAGCAAUAUUACGGCAA | n
UCGAAGCAAUAUUACGGUGG | y
UGCUAGCAAUAUUACGGACU | y

Q: Dear colleague, could you confirm whether GUAUAGCAAUAUUACGAUCC has self-splicing fitness (ln) at or above -2?
Result: y

* * *

Test: self-splicing fitness, log relative to wild type (ln ratio); higher = more splicing; Tetrahymena group I intron in knt gene, E. coli kanamycin selection, DiMSum; sequences stand for … in CUCUCU…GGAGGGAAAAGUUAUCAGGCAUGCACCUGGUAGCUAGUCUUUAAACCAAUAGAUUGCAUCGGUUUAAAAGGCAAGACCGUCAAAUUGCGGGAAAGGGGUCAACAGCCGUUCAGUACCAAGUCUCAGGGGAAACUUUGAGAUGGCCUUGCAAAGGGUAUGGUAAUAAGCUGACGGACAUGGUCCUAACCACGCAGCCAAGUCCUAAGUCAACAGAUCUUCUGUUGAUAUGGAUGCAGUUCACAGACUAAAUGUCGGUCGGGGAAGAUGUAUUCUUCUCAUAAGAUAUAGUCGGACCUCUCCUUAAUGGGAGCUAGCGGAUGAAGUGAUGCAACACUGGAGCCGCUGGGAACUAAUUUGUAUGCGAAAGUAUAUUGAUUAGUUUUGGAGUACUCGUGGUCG
Details: 37 °C
So basically: self-splicing fitness (ln) at -2 or higher? That is Fulfilled. Lower than -2? That is Not fulfilled.

The examples below pair each entry with its known result.
UGUGAGCAAUAUUACGAGUA | Not fulfilled
UACCAGCAAUAUUACGUCUU | Fulfilled
CCUCAGCAAUAUUACGAGGA | Fulfilled

Q: Dear colleague, could you confirm whether GGAUAGCAAUAUUACGUCGC has self-splicing fitness (ln) at or above -2?
Result: Fulfilled

Q: Dear colleague, could you confirm whether AAACAGCAAUAUUACGUAAG has self-splicing fitness (ln) at or above -2?
Result: Fulfilled

Q: Dear colleague, could you confirm whether GCCGAGCAAUAUUACGGCAU has self-splicing fitness (ln) at or above -2?
Result: Not fulfilled

Q: Dear colleague, could you confirm whether UCAGAGCAAUAUUACGGACG has self-splicing fitness (ln) at or above -2?
Result: Fulfilled

Q: Dear colleague, could you confirm whether CGCCAGCAAUAUUACGCACG has self-splicing fitness (ln) at or above -2?
Result: Fulfilled

Q: Dear colleague, could you confirm whether GUACAGCAAUAUUACGAAUG has self-splicing fitness (ln) at or above -2?
Result: Fulfilled
